Test description: reduction of polyQ htt aggregates in cells – imaging, exon1htt(103Q)mCFP cells, high-content imaging, primary screen (AID 483);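 note: compound exposure lasted 3 days before fixation; percent of the per-plate median nuclei count of sample wells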
Condition label: exon1htt(103Q)mCFP cell line, aggregate imaging, at 2 µM; measured here: cell count, toxicity
Property measured: nuclei count (%)
The reply should be a number in %, with the unit left off.

// known answers, use as guide
Compound: Cc1onc(-c2ccccc2)c1C(=O)Nc1sc2c(c1C(N)=O)CCC2
Units of measure: %
nuclei count: 107
//
Compound: Cc1cccc(C2CC(c3ccccc3)Nc3nc(N)nn32)c1 (stereo not drawn)
Units of measure: %
nuclei count: 114
//
Compound: CCOc1cc(S(=O)(=O)NCc2ccc3c(c2)OCO3)ccc1F
Units of measure: %
nuclei count: 98.6
//
Compound: COc1ccc(-c2ccc(=O)n(Cc3cc(=O)n4ccccc4n3)n2)cc1
Units of measure: %
nuclei count: 99.5
//
Compound: Cc1cc(NC(=O)CSc2nc3c(c(=O)n2Cc2ccccc2)SC(C)C3)no1 (stereo not drawn)
Units of measure: %
nuclei count: 77.3

Returns the measured nuclei count for the input compound. Input: `CN(C)CCCNC(=O)c1ccc(CN(c2ccccc2)S(C)(=O)=O)cc1`
101

Item under review: `O=C(CCN1C(=O)c2ccccc2C1=O)NCCN1CCOCC1` . Reported nuclei count?
96.7

Give its nuclei count value. Item: CCOc1cccc(C(=O)N(Cc2ccco2)C2CCS(=O)(=O)C2)c1 (stereo not drawn)
107

For COc1ccc(S(=O)(=O)N2CCSC2c2ccccc2)cc1 (stereo not drawn) , what is its reported nuclei count?
106

Entry `COc1ccc(Cl)cc1-c1n[nH]c(=S)o1` has what nuclei count?
104

# lookup: nuclei count of `c1ccc(CCNc2ccc3nncn3n2)cc1`
106

---

Target: Voltage-gated potassium channel subunit beta-2 (Rattus norvegicus) (UniProt P62483)
Sequence (P62483 whole entry, looked up): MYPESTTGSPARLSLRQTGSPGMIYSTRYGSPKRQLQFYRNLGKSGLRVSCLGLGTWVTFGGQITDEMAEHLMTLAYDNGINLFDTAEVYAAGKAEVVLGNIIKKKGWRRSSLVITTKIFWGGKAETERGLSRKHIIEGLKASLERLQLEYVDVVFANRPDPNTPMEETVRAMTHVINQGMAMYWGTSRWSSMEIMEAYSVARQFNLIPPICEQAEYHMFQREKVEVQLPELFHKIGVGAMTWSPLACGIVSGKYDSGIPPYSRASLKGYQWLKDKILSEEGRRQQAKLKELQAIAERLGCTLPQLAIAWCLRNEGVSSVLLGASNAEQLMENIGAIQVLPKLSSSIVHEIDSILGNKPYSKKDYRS
Test description: enhancers of rat Kvbeta2 NADPH turnover – biochemical, NADPH fluorescence, primary screen (AID 623);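 note: fluorescence intensity change per second fitted from 20 to 320 s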
Condition label: Recombinant KvBeta, NADPH fluorescence decrease slope, 10 min; at 10 µM; stronger effect = lower value
Property measured: NADPH fluorescence slope
Kindly provide the number alone.

Take a look at these entries with their results.
Molecule: NC(=O)c1cccc2c1C(=O)N(C1CCCCC1)C2
Data value: -1.8e-05
//
Molecule: O=C1CCCC2=C1C(c1cccs1)n1nc(SCc3ccccc3F)nc1N2 (stereo not drawn)
Data value: 3.2e-05
//
Molecule: COc1ccc(OCCOC(=O)c2cccs2)cc1
Data value: 7.3e-06

Tell me the measured NADPH fluorescence slope of C#CCN1C(=O)C(O)(CC(=O)c2cc(OC)ccc2OC)c2ccccc21 (stereo not drawn) , please.
-3.9e-05

Given `CCc1nn2c(N3CCOCC3)cc(C)nc2c1-c1ccc(F)cc1` , state its recorded NADPH fluorescence slope.
-0.000126

---

Target: Voltage-gated potassium channel subunit beta-2 (Rattus norvegicus)
Test description: inhibitors of rat Kvbeta2 reductase activity – biochemical, NADPH fluorescence, primary screen (AID 622);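 note: slope of raw intensity against log time taken from 70 to 1610 s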
Condition label: recombinant KvBeta, 4-cyanobenzaldehyde reduction, at 10 µM, stronger effect = higher value
Calls of active or inactive are those of the source.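 How the source made its calls: active means fluorescence slope higher than the sample average by over 3 SD (cut at about -0.22 in these data, passing the limit was not always enough); inactive means the rest.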
Reported fluorescence slope is given for each of the following compounds.

Some compounds with known fluorescence slope results, for comparison:
Compound: COc1cccc(C(=O)Nc2ncc3c(n2)CC(C)CC3=O)c1 (configuration not stated)
fluorescence slope: -0.592 (inactive)
--
Compound: COCCCNC(=O)C1CCN(C(=O)Nc2ccc(Cl)cc2)CC1
fluorescence slope: -0.457 (inactive)
--
Compound: O=C(Cn1c(=O)sc2ccccc21)NCCOc1ccccc1F
fluorescence slope: -0.514 (inactive)
--
Compound: Cc1cccc(N2CCN(C(=O)Cn3nc(Cc4ccncc4)c4ccccc4c3=O)CC2)c1C
fluorescence slope: -0.563 (inactive)
--
Compound: CCOC(=O)c1c(C)[nH]c(C)c1C(=O)COc1ccc(NC(=O)c2ccco2)cc1
fluorescence slope: -0.646 (inactive)
--
Compound: COc1ccc(C2c3sc(=O)[nH]c3SC3C4CCC(C4)C23)cc1 (configuration not stated)
fluorescence slope: -0.53 (inactive)

What measured fluorescence slope goes with O=C1CC(N2CCOCC2)C(=O)N1c1ccccc1Cl (configuration not stated) ?
-0.338 (inactive)

Look up fluorescence slope: Cc1cc(C)c(NC(=O)C2CSCCS2)c(C)c1 (configuration not stated)
-0.392 (inactive)

// query fluorescence slope value for entry `CN1CCN(C(=O)c2ccc3c(=O)n(CCc4ccccc4)c(=S)[nH]c3c2)CC1`
-0.459 (inactive)

Which fluorescence slope is listed for `CCOC(=O)c1cc2c(=O)n3ccccc3nc2n(CCCOC)c1=NC(C)=O` ?
-0.133 (active)

Recorded fluorescence slope for `COc1cc2c(cc1NCc1ccccn1)oc1ccccc12` , please?
-0.365 (inactive)
